Tested on: EKVX
METHOD DESCRIPTION: relative viability (nuclei count vs DMSO), 5 days (fraction); higher = more cells survive
MEASUREMENT CONDITIONS: first compound 2.53 µM

{"COMPOUND": "Oc1nc(-c2ccc(C(F)(F)F)cc2)nc2c1CSCC2 [XAV939] + CC(C)C[C@H](NC(=O)[C@H](Cc1ccccc1)NC(=O)c1cnccn1)B(O)O [Bortezomib] (partner 0.002 µM)", "relative viability": 0.573}
{"COMPOUND": "Oc1nc(-c2ccc(C(F)(F)F)cc2)nc2c1CSCC2 [XAV939] + COc1cc2c(Oc3ccc(NC(=O)C4(C(=O)Nc5ccc(F)cc5)CC4)cc3F)ccnc2cc1OCCCN1CCOCC1 [Foretinib] (partner 0.25 µM)", "relative viability": 0.793}
{"COMPOUND": "Oc1nc(-c2ccc(C(F)(F)F)cc2)nc2c1CSCC2 [XAV939] + CC(=O)Nc1cccc(-n2c(=O)n(C3CC3)c(=O)c3c(Nc4ccc(I)cc4F)n(C)c(=O)c(C)c32)c1 [Trametinib] (partner 0.02 µM)", "relative viability": 0.245}
{"COMPOUND": "C=C1C(=O)O[C@@H](CCCCCCCC)[C@@H]1C(=O)O [C-75] + CS(=O)(=O)N1CCN(Cc2cc3nc(-c4cccc5[nH]ncc45)nc(N4CCOCC4)c3s2)CC1 [Pictilisib] (partner 1 µM)", "relative viability": 0.458}

====

Tested on: A-427
METHOD DESCRIPTION: relative viability (nuclei count vs DMSO), 5 days (fraction); higher = more cells survive
MEASUREMENT CONDITIONS: first compound 0.04 µM
Doc: threshold 0.9 (exclusive). Items with relative viability beneath it return yes (1); others return no (0).

{"COMPOUND": "O=C(O)c1ccc(-c2c[nH]c3ncc(-c4ccccc4)cc23)cc1C1CCCC1 + CS(=O)(=O)N1CCN(Cc2cc3nc(-c4cccc5[nH]ncc45)nc(N4CCOCC4)c3s2)CC1 [Pictilisib] (partner 1 µM)", "TARGET UNDER TEST": "A-427", "CLASS ASSIGNMENT": "yes (1)"}
{"COMPOUND": "O=C(O)c1ccc(-c2c[nH]c3ncc(-c4ccccc4)cc23)cc1C1CCCC1 + CC(=O)Nc1cccc(-n2c(=O)n(C3CC3)c(=O)c3c(Nc4ccc(I)cc4F)n(C)c(=O)c(C)c32)c1 [Trametinib] (partner 0.02 µM)", "TARGET UNDER TEST": "A-427", "CLASS ASSIGNMENT": "yes (1)"}
{"COMPOUND": "O=C(O)c1ccc(-c2c[nH]c3ncc(-c4ccccc4)cc23)cc1C1CCCC1 + CC(C)C[C@H](NC(=O)[C@H](Cc1ccccc1)NC(=O)c1cnccn1)B(O)O [Bortezomib] (partner 0.002 µM)", "TARGET UNDER TEST": "A-427", "CLASS ASSIGNMENT": "no (0)"}
{"COMPOUND": "O=C(O)c1ccc(-c2c[nH]c3ncc(-c4ccccc4)cc23)cc1C1CCCC1 + CS(=O)(=O)CCNCc1ccc(-c2ccc3ncnc(Nc4ccc(OCc5cccc(F)c5)c(Cl)c4)c3c2)o1 [Lapatinib] (partner 2 µM)", "TARGET UNDER TEST": "A-427", "CLASS ASSIGNMENT": "no (0)"}
{"COMPOUND": "O=C(O)c1ccc(-c2c[nH]c3ncc(-c4ccccc4)cc23)cc1C1CCCC1 + Nc1nc2[nH]cc(CCc3ccc(C(=O)N[C@@H](CCC(=O)O)C(=O)O)cc3)c2c(=O)[nH]1 [Pemetrexed] (partner 0.2 µM)", "TARGET UNDER TEST": "A-427", "CLASS ASSIGNMENT": "no (0)"}
{"COMPOUND": "O=C(O)c1ccc(-c2c[nH]c3ncc(-c4ccccc4)cc23)cc1C1CCCC1 + CC1(C)CCC(c2ccc(Cl)cc2)=C(CN2CCN(c3ccc(C(=O)NS(=O)(=O)c4ccc(N[C@H](CCN5CCOCC5)CSc5ccccc5)c(S(=O)(=O)C(F)(F)F)c4)cc3)CC2)C1 [Navitoclax] (partner 0.5 µM)", "TARGET UNDER TEST": "A-427", "CLASS ASSIGNMENT": "no (0)"}
{"COMPOUND": "O=C(O)c1ccc(-c2c[nH]c3ncc(-c4ccccc4)cc23)cc1C1CCCC1 + Cc1nc(Nc2ncc(C(=O)Nc3c(C)cccc3Cl)s2)cc(N2CCN(CCO)CC2)n1 [Dasatinib] (partner 0.075 µM)", "TARGET UNDER TEST": "A-427", "CLASS ASSIGNMENT": "yes (1)"}

====

Tested on: RERF-LC-KJ
METHOD DESCRIPTION: relative viability (nuclei count vs DMSO), 5 days (fraction); higher = more cells survive
MEASUREMENT CONDITIONS: first compound 0.08 µM

{"COMPOUND": "Oc1nc(-c2ccc(C(F)(F)F)cc2)nc2c1CSCC2 [XAV939] + CC(=O)c1c(C)c2cnc(Nc3ccc(N4CCNCC4)cn3)nc2n(C2CCCC2)c1=O [Palbociclib] (partner 0.5 µM)", "TARGET UNDER TEST": "RERF-LC-KJ", "relative viability": 1.13}
{"COMPOUND": "Oc1nc(-c2ccc(C(F)(F)F)cc2)nc2c1CSCC2 [XAV939] + Nc1nc2[nH]cc(CCc3ccc(C(=O)N[C@@H](CCC(=O)O)C(=O)O)cc3)c2c(=O)[nH]1 [Pemetrexed] (partner 0.2 µM)", "TARGET UNDER TEST": "RERF-LC-KJ", "relative viability": 0.493}
{"COMPOUND": "Oc1nc(-c2ccc(C(F)(F)F)cc2)nc2c1CSCC2 [XAV939] + Cc1nc(Nc2ncc(C(=O)Nc3c(C)cccc3Cl)s2)cc(N2CCN(CCO)CC2)n1 [Dasatinib] (partner 0.075 µM)", "TARGET UNDER TEST": "RERF-LC-KJ", "relative viability": 0.77}
{"COMPOUND": "Oc1nc(-c2ccc(C(F)(F)F)cc2)nc2c1CSCC2 [XAV939] + COc1cccc2cc(-c3nc([C@H]4CC[C@H](C(=O)O)CC4)n4ncnc(N)c34)[nH]c12 [OSI-027] (partner 0.5 µM)", "TARGET UNDER TEST": "RERF-LC-KJ", "relative viability": 0.607}
{"COMPOUND": "C=C1C(=O)O[C@@H](CCCCCCCC)[C@@H]1C(=O)O [C-75] + CS(=O)(=O)N1CCN(Cc2cc3nc(-c4cccc5[nH]ncc45)nc(N4CCOCC4)c3s2)CC1 [Pictilisib] (partner 1 µM)", "TARGET UNDER TEST": "RERF-LC-KJ", "relative viability": 0.564}
{"COMPOUND": "Oc1nc(-c2ccc(C(F)(F)F)cc2)nc2c1CSCC2 [XAV939] + CC(C)C[C@H](NC(=O)[C@H](Cc1ccccc1)NC(=O)c1cnccn1)B(O)O [Bortezomib] (partner 0.002 µM)", "TARGET UNDER TEST": "RERF-LC-KJ", "relative viability": 0.864}
{"COMPOUND": "Oc1nc(-c2ccc(C(F)(F)F)cc2)nc2c1CSCC2 [XAV939] + COc1cc2c(Oc3ccc(NC(=O)C4(C(=O)Nc5ccc(F)cc5)CC4)cc3F)ccnc2cc1OCCCN1CCOCC1 [Foretinib] (partner 0.25 µM)", "TARGET UNDER TEST": "RERF-LC-KJ", "relative viability": 0.781}
{"COMPOUND": "C=C1C(=O)O[C@@H](CCCCCCCC)[C@@H]1C(=O)O [C-75] + COc1cc2c(Oc3ccc(NC(=O)C4(C(=O)Nc5ccc(F)cc5)CC4)cc3F)ccnc2cc1OCCCN1CCOCC1 [Foretinib] (partner 0.25 µM)", "TARGET UNDER TEST": "RERF-LC-KJ", "relative viability": 0.94}
{"COMPOUND": "C=C1C(=O)O[C@@H](CCCCCCCC)[C@@H]1C(=O)O [C-75] + N=C(N)NC(=N)NCCc1ccccc1 [Phenformin] (partner 250 µM)", "TARGET UNDER TEST": "RERF-LC-KJ", "relative viability": 0.427}
{"COMPOUND": "C=C1C(=O)O[C@@H](CCCCCCCC)[C@@H]1C(=O)O [C-75] + COc1cccc2cc(-c3nc([C@H]4CC[C@H](C(=O)O)CC4)n4ncnc(N)c34)[nH]c12 [OSI-027] (partner 0.5 µM)", "TARGET UNDER TEST": "RERF-LC-KJ", "relative viability": 0.713}

====

# relative viability values compiled below
Tested on: NCI-H2405
METHOD DESCRIPTION: relative viability (nuclei count vs DMSO), 5 days (fraction); higher = more cells survive
MEASUREMENT CONDITIONS: first compound 0.08 µM

{"COMPOUND": "C=C1C(=O)O[C@@H](CCCCCCCC)[C@@H]1C(=O)O [C-75] + NC(=O)Nc1cc(-c2cccc(F)c2)sc1C(=O)N[C@H]1CCCNC1 [AZD7762] (partner 0.2 µM)", "relative viability": 0.689}
{"COMPOUND": "C=C1C(=O)O[C@@H](CCCCCCCC)[C@@H]1C(=O)O [C-75] + CC(=O)c1c(C)c2cnc(Nc3ccc(N4CCNCC4)cn3)nc2n(C2CCCC2)c1=O [Palbociclib] (partner 0.5 µM)", "relative viability": 0.523}
{"COMPOUND": "C=C1C(=O)O[C@@H](CCCCCCCC)[C@@H]1C(=O)O [C-75] + O=C(c1cc(Cc2n[nH]c(=O)c3ccccc23)ccc1F)N1CCN(C(=O)C2CC2)CC1 [Olaparib] (partner 8 µM)", "relative viability": 0.808}
{"COMPOUND": "C=C1C(=O)O[C@@H](CCCCCCCC)[C@@H]1C(=O)O [C-75] + C[C@]1(O)C[C@@H](c2nc(-c3ccc4ccc(-c5ccccc5)nc4c3)c3c(N)nccn32)C1 [Linsitinib] (partner 1 µM)", "relative viability": 0.882}
{"COMPOUND": "C=C1C(=O)O[C@@H](CCCCCCCC)[C@@H]1C(=O)O [C-75] + Cc1nc(NC(=O)N2CCC[C@H]2C(N)=O)sc1-c1ccnc(C(C)(C)C(F)(F)F)c1 [Alpelisib] (partner 2 µM)", "relative viability": 0.833}
{"COMPOUND": "Oc1nc(-c2ccc(C(F)(F)F)cc2)nc2c1CSCC2 [XAV939] + CC1(C)CCC(c2ccc(Cl)cc2)=C(CN2CCN(c3ccc(C(=O)NS(=O)(=O)c4ccc(N[C@H](CCN5CCOCC5)CSc5ccccc5)c(S(=O)(=O)C(F)(F)F)c4)cc3)CC2)C1 [Navitoclax] (partner 0.5 µM)", "relative viability": 0.945}

Where do the numbers come from? From the supplement of paper PMC10307832.
